- assay.name: chemical genetic growth profiling, strain panel (AID 1159580);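 further: tested at 20 µM; growth read once vehicle control cultures reached saturation at 30 °C; 1 = growth at the plate median or of vehicle wells; lower values mean less growth of the strain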
- test.settings: S. cerevisiae deletion strains, growth OD, locus YML032C, strain rad52, hits give low values
Out of some 5,500 compounds screened, about 2,000 (36%) were called active. Another 18% or so got no clear call; they are omitted. The list shows a part of the results.
Examples of compounds with documented normalized growth follow.

compound | normalized growth
NS(=O)(=O)c1cc2c(cc1Cl)NC(C(Cl)Cl)NS2(=O)=O (stereo not given) | 1.02
CC[C@H](C)C(=O)O[C@H]1CCC=C2C=C[C@H](C)C(CCC3C[C@@H](O)CC(=O)O3)[C@H]21 (stereo not given in full) | 1.03
O=c1[nH]oc2c1CCNC2 | 0.954
CC1=CC2C(CC1=O)C(C)=CCC2C(C)C (stereo not given) | 0.948
CC[C@H](C)C(=O)O[C@H]1C[C@@H](C)C=C2C=C[C@H](C)[C@H](CC[C@@H]3C[C@@H](O)CC(=O)O3)[C@H]21 | 1.01
